Values from PubChem BioAssay (NCI)

What growth inhibition was measured for each of the following?
PROCEDURE_DETAILS: NCI Yeast Anticancer Drug Screen. Data for the rad50 strain (AID 155);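 also: 0% = growth of vehicle-only cultures of the same strain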
CONDITION_DETAILS: S. cerevisiae rad50 strain growth inhibition; at 5.0 µM (retest, dose inferred, filed as 0.5); hits give high values
Compounds without any hit were thinned out: in the full panel of roughly 79,000, 15% have a hit.
Output spec: scalar in %, unitless text.

// query Report growth inhibition for `NC(N)=N/N=C(\c1ccc(F)cc1)c1ccc(C(F)(F)F)cc1` please.
// result 5

// query Report growth inhibition for `CC(C)N1C(=O)C=CC1=O` please.
// result 6

// query Report growth inhibition for `CN(C)c1ccccc1CC(c1c[nH]c2ccccc12)c1c[nH]c2ccccc12` please.
// result 82

// query Report growth inhibition for CCCCCCCCCCCCCCCC(=O)N(CCCN(CC)CC)C(C)CCCN(CC)CC (stereo not drawn) please.
// result 90

// query Report growth inhibition for `[CH3][Sn]1([CH3])[O]C(=O)CCN=Cc2c(ccc3ccccc23)[O][Sn]([CH3])([CH3])[O]C(=O)CCN=Cc2c(ccc3ccccc23)[O]1` please.
// result 57

// query Report growth inhibition for O=S1(=O)CCc2ccccc2C(Br)C1Br (stereo not drawn) please.
// result 13

// query Report growth inhibition for `COc1cccc2c1N[S@](=O)S2` please.
// result -12

// query Report growth inhibition for `CCOC(=O)Cc1csc2[n+]1C(=O)/C(=C\c1cccc(Cl)c1Cl)S2` please.
// result 11
